test system: Swiss mice, Sarcoma 180 sc, mean tumor weight T/C; test: NCI In Vivo Anticancer Drug Screen. Data for tumor model Sarcoma 180 (subcutaneous) in Swiss mice; details: endpoint: mean tumor weight; dose: 25.0 mg/kg/injection; schedule: Q01DX007 (sc); vehicle: steriod suspending solution; higher = larger tumour
Each entry below lists one item and its recorded T/C value.

For orientation, consider the following solved cases.
| chemical smiles | parameter measured | obs value |
| --- | --- | --- |
| CC(=O)[C@H]1CC[C@H]2[C@@H]3C[C@H](F)C4=CC(=O)CC[C@]4(C)[C@@]3(F)[C@@H](O)C[C@]12C | T/C | 65 % of control |
| CC(=O)[C@@]1(O)CC[C@H]2[C@@H]3CCC4=CC(=O)CC[C@]4(C)[C@@]3(F)[C@@H](O)C[C@@]21C | T/C | 69 % of control |
| CC(=O)OCC(=O)[C@@]1(O)CC[C@H]2[C@@H]3C[C@H](C)C4=CC(=O)CC[C@]4(C)[C@H]3[C@@H](O)C[C@@]21C | T/C | 37 % of control |
| CC(=O)[C@H]1[C@H](C)C[C@H]2[C@@H]3CCC4=CC(=O)CC[C@]4(C)[C@@]3(F)[C@@H](O)C[C@@]21C | T/C | 44 % of control |
| CC(=O)OCC(=O)[C@@]1(O)CC[C@H]2[C@@H]3C=C(C)C4=CC(=O)CC[C@]4(C)[C@H]3[C@@H](O)C[C@@]21C | T/C | 39 % of control |

What value of T/C has been reported for the following compound? C[C@]12CC[C@H](O)C[C@H]1CC[C@@H]1[C@@H]2CC[C@]2(C)[C@@H](C3=CC(=O)OC3)[C@@H](O)C[C@]12O
50 % of control
